# tgt: T1, rLin28 (Lin28) (UniProt Q9H9Z2 1-209)
# T1 sequence: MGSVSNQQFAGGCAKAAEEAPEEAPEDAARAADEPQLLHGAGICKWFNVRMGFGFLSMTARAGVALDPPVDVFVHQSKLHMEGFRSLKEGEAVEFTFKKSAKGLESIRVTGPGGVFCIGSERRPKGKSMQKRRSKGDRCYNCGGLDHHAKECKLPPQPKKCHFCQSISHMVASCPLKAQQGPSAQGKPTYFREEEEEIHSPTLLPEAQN
# assay_method_text: EMSA
quantity_measured: pKd
Expect pKd as a plain number equal to -log10 of the molar concentration.

[ask] Entry pre-let-7a-1 (structured_RNA) RNA: GGGCUGAGGUAGUAGGUUGUAUAGUUUUAGGGUCACACCCACCACUGGGAGAUAACUAUACAAUCUACUGUCUUUCC has what pKd?
[reply] 5.70
